Measured Cell Assay ECΔτ1h by item
# Tested on: Mper1-luc Rat-1 fibroblasts (P2C4)
# protocol: Cellular Circadian Assay (Mper1-luc reporter period lengthening)
# Assay type: cell-based
# condition-info: effective concentration that induces a 1 hour lengthening of circadian period
Please state the figure in µM; there is no need to write the unit.

Take a look at these entries with their results.
| smi | recorded-number |
| --- | --- |
| Cc1nc2c(Sc3cccc(Cl)c3)c(C(N)=O)[nH]c2s1 | 0.662 |
| COc1cccc(Sc2c(C(N)=O)[nH]c3scnc23)c1 | 1.974 |
| NC(=O)c1[nH]c2sccc2c1Sc1cccc(Br)c1 | 2.492 |
| NC(=O)c1[nH]c2sccc2c1Sc1ccccc1 | 0.874 |

Cell Assay ECΔτ1h of NC(=O)c1[nH]c2scnc2c1Sc1ccccc1 on Mper1-luc Rat-1 fibroblasts (P2C4)? 1.155

Give Cell Assay ECΔτ1h (Mper1-luc Rat-1 fibroblasts (P2C4)) of the following compound: Cc1nc2c(Sc3cccc(F)c3)c(C(N)=O)[nH]c2s1 0.998

----------
Measured pKi (Casein Kinase Iε (Homo sapiens, UniProt P49674))
To interpret pKi, take it as minus log10 of a concentration measured in moles per litre.

| compound | pKi |
| --- | --- |
| Cc1ccccc1Sc1c(C(N)=O)[nH]c2ccsc12 [Ik] | 6.33 |
| NC(=O)c1[nH]c2ccsc2c1Sc1cccc(OC(F)(F)F)c1 [Iu] | 6.25 |
| COc1cccc(Sc2c(C(N)=O)[nH]c3ccsc23)c1 [Iq] | 7.42 |

Okay, next one:
# query: pKi of entry NC(=O)c1[nH]c2ccsc2c1Sc1cc(Cl)ccc1Cl [Im] 5.90
